assay: Oral bioavailability in orally dosed rat; format: ADME, organism-based; settings: in vivo
measure-name: bioavailability
Give the figure together with its unit, number first.

Given Cc1n[nH]c2ccc(-c3cncc(OC[C@@H](N)Cc4ccc(Cl)c(F)c4)c3)cc12 , respond with its bioavailability. 38%

###

target: cAMP-dependent protein kinase (PKA) (Homo sapiens, UniProt P22694+P17612+P22612); assay: Inhibition of PKA; type: protein assay
Labelling field: enter Yes if recorded IC50 is less than 10 nM. Enter No if it equals or exceeds that cut-off.

Previously resolved entries follow.
| compound | discrete-label |
| --- | --- |
| N[C@H](COc1cncc(-c2cc3c(Cl)n[nH]c3cn2)c1)Cc1cccc(C(F)(F)F)c1 | No |
| Cc1n[nH]c2ccc(-c3cncc(OC[C@@H](N)Cc4cccc(F)c4F)c3)cc12 | Yes |
| N[C@H](COc1cncc(-c2cc3cn[nH]c3cn2)c1)Cc1cccc(C(F)(F)F)c1 | No |
| Cc1n[nH]c2ccc(-c3cncc(OC[C@@H](N)Cc4cccc(C(F)(F)F)c4)c3)cc12 | Yes |

Decide: IC50 of Cc1n[nH]c2cnc(-c3cncc(OC[C@@H](N)Cc4cccc(C(F)(F)F)c4)c3)cc12 strictly below 10 nM? No

Problem: For the compound Cc1n[nH]c2cnc(-c3cncc(OC[C@@H](N)Cc4cccc(F)c4F)c3)cc12 , is IC50 under 10 nM? Yes
